- System: human peripheral blood CD4+ helper T cells
- Protocol Description: Pan-CD4+ T cell activation (off-target assay)
- Assay type: cell-based
- Condition Set: anti-CD3/anti-CD28 stimulation, IL-2 production by ELISA, 24 hrs
pIC50: −log10 of the molar value.
Assay Endpoint: pIC50

Before answering, review these 2 worked examples.
Given Cc1c(O[C@@H](c2ccc(C(N)=O)cc2)c2cccc[n+]2[O-])ccc2c1OCCC2=O (single isomer, unassigned) [Example 65b] , state its recorded pIC50.
4.82

Given Cc1c(O[C@@H](c2ccncc2)c2ccc(C(N)=O)cc2)ccc2c1OCCC2=O (single isomer, unassigned) [Example 48b] , state its recorded pIC50.
< 4.82

Further cases:
Given NC(=O)c1ccc([C@@H](Oc2ccc3c(c2)OCCC3=O)c2cccnc2)cc1 (single isomer, unassigned) [Example 31b] , state its recorded pIC50.
< 4.82

###

- Measured On: HLA-DRB1*0401 (Homo sapiens (Human), UniProt P01903+P01911, A100K/A169T/DEL228-266/F76Y/I96L/K127E/L162R/M171V/N62H/P40V/Q125Y/R42H/S133A/S149N/S66Y/V115G/V209L/W38E)
- Protocol Description: HLA-DR4 HTRF assay
- Condition Set: inhibition of loading of Alexa Fluor 647-labeled Cit-CII peptide onto HLA-DR4 (CLIP cleaved)
Assay Endpoint: pIC50
Please keep in mind that pIC50 is minus log10 of the molar concentration; only the number is needed.

Given COc1cc(C(N)=O)ccc1[C@H](Oc1ccc2c(c1C)OCCC2=O)c1ccncc1 (single isomer, unassigned) [Example 82a] , state its recorded pIC50.
6.15

Further cases:
Given CC[C@H]1CC(=O)c2ccc(O[C@H](c3ccncc3)c3ccc(C(N)=O)cc3)cc2O1 (single isomer, unassigned) [Example 41b] , state its recorded pIC50.
5.96

Given NC(=O)c1ccc([C@@H](Oc2ccc3c(c2)OCCC3=O)c2ccncc2N)cc1 (single isomer, unassigned) [Example 27a] , state its recorded pIC50.
5.14

Given NC(=O)c1ccc([C@H](Oc2ccc3c(c2)O[C@H](c2ccccc2)CC3=O)c2ccncc2)cc1 (single isomer, unassigned) [Example 42b] , state its recorded pIC50.
5.12

Given Cc1c(O[C@H](c2ccncc2)c2ccc(C(N)=O)cc2OC(C)C)ccc2c1OCCC2=O (single isomer, unassigned) [Example 84a] , state its recorded pIC50.
5.92

Given Cc1c(O[C@H](c2ccccc2)c2ccc(C(N)=O)cc2)ccc2c1OCCC2=O (single isomer, unassigned) [Example 69a] , state its recorded pIC50.
5.68

Given CCC1COc2cc(OCc3ccncc3)ccc2C1=O (racemic) , state its recorded pIC50.
5.92

Given CC(C)c1c(O[C@H](c2ccc(C(N)=O)cc2)c2ccc(C(=O)O)cc2)ccc2c1OCCC2=O (single isomer, unassigned) [Example 108a] , state its recorded pIC50.
6.07

Given COc1ccc([C@@H](Oc2c(F)cc3c(c2C)OCCC3=O)c2ccncc2)cc1 (single isomer, unassigned) [Example 103a] , state its recorded pIC50.
5.54

Given COc1ccc([C@H](Oc2c(F)cc3c(c2C)OCCC3=O)c2ccncc2)cc1 (single isomer, unassigned) [Example 103b] , state its recorded pIC50.
5.55

Given O=C1CCOc2cc(O[C@H](c3ccccc3)c3ccncc3)ccc21 (single isomer, unassigned) [Example 114a] , state its recorded pIC50.
5.85

Given COc1ccc([C@@H](Oc2c(F)cc3c(c2C)OCCC3=O)c2ccncc2)cc1F (single isomer, unassigned) [Example 97b] , state its recorded pIC50.
6.42
